pKi: −log10 of the molar value.
Dear all, I have gathered published pKi values for Histamine H4 receptor (Homo sapiens, UniProt Q9H3N8); the list follows.
parameter_measured: pKi

P: c1nc(CCC2CCNCC2)c[nH]1
Q: Cc1ccc(CNc2nc3c(c(N4CCN(C)CC4)n2)CCc2ccccc2-3)cc1
R: Cc1cc(Cl)cc2c(NCc3ccco3)nc(N3CCN(C)CC3)nc12
S: CN1CCN(C(=O)c2cc3cccc(F)c3[nH]2)CC1
Please rank these molecules by pKi in descending order. Form entry: ranked labels (order as requested).
S, R, P, Q
(S: 7.70, R: 6.73, P: 6.43, Q: 4.70)
